Where do the numbers come from? From PubChem BioAssay.

Attribute: NADPH fluorescence slope
target: Voltage-gated potassium channel subunit beta-2 (Rattus norvegicus) (UniProt P62483); assay: KvBeta positive modulators, primary screen, biochemical, NADPH fluorescence (AID 623); settings: Recombinant KvBeta, NADPH fluorescence decrease slope, 10 min; at 10 µM; stronger effect = lower value;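 further: fluorescence intensity change per second fitted from 20 to 320 s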
Sequence (P62483 whole entry, looked up): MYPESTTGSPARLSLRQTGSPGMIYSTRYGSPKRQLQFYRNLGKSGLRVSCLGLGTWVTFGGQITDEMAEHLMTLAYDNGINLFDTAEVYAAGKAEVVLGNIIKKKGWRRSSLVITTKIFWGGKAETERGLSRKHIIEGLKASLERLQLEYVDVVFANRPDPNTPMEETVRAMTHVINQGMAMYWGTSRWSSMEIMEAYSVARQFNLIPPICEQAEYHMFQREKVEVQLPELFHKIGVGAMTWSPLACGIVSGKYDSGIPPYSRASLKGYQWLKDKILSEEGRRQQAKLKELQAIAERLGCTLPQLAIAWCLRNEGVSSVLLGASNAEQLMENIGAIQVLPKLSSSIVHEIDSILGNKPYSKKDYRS
Activity calls are given as the source filed them.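 How the source made its calls: active means NADPH fluorescence slope more negative than the mean of all samples by about 3 SD, 99.7% confidence; inactive means the rest.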
ENDPOINT_LABEL: NADPH fluorescence slope

# MOLECULE, ENDPOINT_RESULT
measured = [
    ("COc1ccc(Cc2nnc(NC(=O)Cc3cccs3)s2)cc1", "2.7e-05 (inactive)"),
    ("O=C(CC1SC2=NCCN2C1=O)Nc1ccccc1 (stereo not given)", "-5.8e-05 (inactive)"),
    ("CC(=O)C1=C(C)NC(=O)NC1c1cccc(O)c1 (stereo not given)", "-5e-05 (inactive)"),
    ("Cc1cccc(NC(=O)c2cc(N3CCOCC3)nc3ccccc23)c1", "-7.5e-05 (inactive)"),
    ("COC(=O)C(NC(=O)c1ccc(F)cc1)(Nc1nc(C)cs1)C(F)(F)F (stereo not given)", "-4.6e-05 (inactive)"),
    ("CC(=O)Nc1ccc(S(=O)(=O)N2CCC(NC(C)=O)(c3cccc(F)c3)CC2)cc1", "-4.3e-05 (inactive)"),
    ("CCC(=O)Nc1nc2ccccc2n1CCN(C)C", "-1.7e-05 (inactive)"),
    ("CC(C)=CCCC(C)CN(C)CCc1ccccn1 (stereo not given)", "-0.000147 (inactive)"),
    ("Cn1c2c(c(=O)n(C)c1=O)C(c1cccc(Br)c1)C1C(=O)c3ccccc3C1=N2 (stereo not given)", "-6.2e-05 (inactive)"),
    ("CC(C)Cc1nc(N2CCN(C(=O)Cc3ccccc3)CC2)c(C#N)c2c1COC(C)(C)C2", "-0.000102 (inactive)"),
]

----------
target: Voltage-gated potassium channel subunit beta-2 (Rattus norvegicus); test: KvBeta enzyme negative modulators, primary screen, biochemical, NADPH fluorescence (AID 622); settings: recombinant KvBeta, 4-cyanobenzaldehyde reduction, at 10 µM, stronger effect = higher value;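 further: slope of raw intensity against log time taken from 70 to 1610 s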
Assign class by fluorescence slope: not lower than -0.5 means y; lower than -0.5 means n.

# MOLECULE, ANSWER_LABEL
rows = [
    ("COc1ccc(N(CC(=O)O)S(=O)(=O)c2ccc(OC)c(OC)c2)cc1", "y"),
    ("Cc1noc(C)c1C(=O)Nc1ccc(Cl)cc1C(F)(F)F", "n"),
    ("O=C(NCc1ccco1)c1ccc(=O)[nH]n1", "n"),
    ("O=C(NC1CCN(Cc2nnnn2CCc2ccccc2)CC1)c1ccccc1F", "y"),
    ("O=S(=O)(Nc1nc2ccccc2nc1NCc1ccco1)c1cccs1", "y"),
    ("CC(=O)N1CCN=C1SCc1ccc(Br)cc1", "n"),
    ("Oc1oc(-c2ccco2)nc1C=Nc1cccc(Cl)c1", "y"),
    ("CN(C)c1ccc(CNn2cnnc2)cc1", "y"),
    ("CCCN(CCC)c1nc2ccccc2nc1C(C#N)C(=O)OC(C)COC (centres undefined)", "y"),
    ("CN(C)CCNC(=O)C12CC3(C)CC(C)(CC(C)(C3)C1)C2", "y"),
]

----------
experiment: inhibitors of Chlamydomonas gravitaxis, primary screen, whole organism, Chlamydomonas reinhardtii, WT vs cilia-less mutant, absorbance, 96-well (AID 463189); conditions: OD600 absorbance, 2 days, at 10 µM, stronger effect = higher value;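 further: 0% = wild type cc124 cells in DMSO and 100% = ciliumless bld1 mutant cells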
The source made the active and inactive calls.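 Rule for the calls: active = inhibition at or above 50% relative to wild type and mutant plate controls; inactive = inhibition below 50%.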

# COMPOUND, inhibition
rows = [
    ("N#Cc1cccc(-n2c(-c3ccccc3)nnc2-c2ccccc2)c1C#N", "6.01% (inactive)"),
    ("COc1ccc(/C(O)=C2\\C(=O)C(=O)N(CCN(C)C)C2c2cccc(OC)c2OC)cc1Cl (centres undefined)", "10.3% (inactive)"),
    ("O=C(Nc1ccccn1)c1ccc(=O)[nH]n1", "20.6% (inactive)"),
    ("CCOC(=O)/C=c1\\s/c(=C(\\C#N)C(=O)OCC)n(-c2ccccc2)c1=O", "-7.74% (inactive)"),
    ("COC(=O)C(C)Sc1nc2c(c(=O)n(C)c(=O)n2C)n1CCC(C)C (centres undefined)", "4.36% (inactive)"),
    ("Cc1cc(C)n(S(=O)(=O)/C=C/c2ccccc2)n1", "25.5% (inactive)"),
    ("O=c1oc2c(CN3CCCCC3)c(O)ccc2c2c1CCCCC2", "3.57% (inactive)"),
    ("CCN(CC)CCCN1C(=O)C(=O)/C(=C(/O)c2ccc3c(c2)CC(C)O3)C1c1ccncc1 (centres undefined)", "17% (inactive)"),
    ("Cc1cc(C)n(-c2ncnc3sc(C)c(C)c23)n1", "-1.64% (inactive)"),
    ("O=C1CC(c2ccco2)CC(O)=C1C=NCCN1CCN(C2CC(=O)N(c3ccccc3)C2=O)CC1 (centres undefined)", "-7.38% (inactive)"),
    ("O=C(C1CCCCC1)N1CCCn2c1nc1ccccc12", "-20.3% (inactive)"),
    ("CSc1nc2sc3c(c2c2nncn12)CCC3", "46.8% (inactive)"),
    ("CN1Cc2c(N3CCOCC3)nc(SCc3ccccc3)c(C#N)c2CC1(C)C", "17.9% (inactive)"),
    ("Cc1nc2c(c(N3CCOCC3)n1)OCC(=O)N2", "31.8% (inactive)"),
    ("O=C(O)c1ccc(C2CCCCC2)cn1", "-1.91% (inactive)"),
    ("CSc1nc2sc3c(c2c2nnnn12)CCCC3", "31% (inactive)"),
    ("Cc1cc(=O)n(CCC(=O)O)c2ccccc12", "-13% (inactive)"),
    ("CCOC(=O)C1CCN(c2ncnc3c2cnn3-c2ccc(OC)cc2)CC1", "-3.46% (inactive)"),
    ("O=C1CC(c2ccccc2)n2nc(NS(=O)(=O)c3ccccc3)nc2N1 (centres undefined)", "-8.7% (inactive)"),
]
